ASSAY_COMMENT: compound fluorescence in toxin protease inhibitor counterscreen, primary screen, artefact control for toxin protease inhibitor project, biochemical, multiplex microsphere, HTS (AID 624483)
RUN_PARAMETERS: compound autofluorescence counterscreen, microsphere flow cytometry; active compounds read high
Among all 360,000 compounds or so, about 11,000 (3.1%) were called active. Not shown: some 2% with an inconclusive outcome. The full list was thinned out, with actives kept by preference.
Measured fluorescence intensity, listed per entry.
MEASURED_METRIC: fluorescence intensity

1) Cc1cc(C)c(C)c(S(=O)(=O)Nc2cccnc2)c1C : 6330
2) CCOC(=O)CSc1nnc(CNC(=O)c2cccs2)n1-c1cc(OC)ccc1OC : 9680
3) COc1ccccc1Oc1ccc(S(=O)(=O)Nc2cccnc2)cc1 : 21600
4) COc1ccc(-n2c(SCC(=O)NCc3cccs3)nnc2-c2ccoc2C)cc1 : 3110
5) CCc1nc2ccc(C(=O)N(C)CCN(C)C)cn2c1N(CC)CCOC : 3650
6) Cc1ccc(-n2c(SCC(=O)Nc3ccc4c(c3)OCO4)nnc2-c2ccccn2)cc1 : 9860
7) COCCn1c(SCC(=O)c2[nH]c(C)c(C(C)=O)c2C)nc2ccccc2c1=O : 3120
8) COc1ccc(S(=O)(=O)Nc2cccnc2)c(Cl)c1Cl : 3840
9) COc1ccc(OC)c(NC(=O)c2cc(-c3cc(F)ccc3OCC3CCCO3)n[nH]2)c1 (stereo not given) : 3690
10) COc1ccc(NC(=O)CCCN2C(=O)C(c3ccccc3)Oc3cccnc32)cc1 (stereo not given) : 5260

Origin of the recorded values: PubChem BioAssay AID624483
